assay: NCI Yeast Anticancer Drug Screen. Data for the rad14 strain (AID 159);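 also: 0% = growth of vehicle-treated control cultures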; settings: S. cerevisiae rad14 strain growth inhibition; at 33.0 µM
Compounds without any hit were thinned out: in the full panel of roughly 79,000, 15% have a hit. The source made the active and inactive calls. Rule as the data show it: active = growth inhibition above about 70%; inactive = the rest.
// allowed return values: y (active), n (inactive)

Answered examples (2):
Compound: O=C1C2CC(Cl)C(SSC3CC4C(=O)N(SC(Cl)(Cl)C(Cl)Cl)C(=O)C4CC3Cl)CC2C(=O)N1SC(Cl)(Cl)C(Cl)Cl (stereo unspecified)
Label class: y
//
Compound: CC1CC(Br)C(=O)O1 (stereo unspecified)
Label class: n

Ask: Identify the outcome logged in this assay for the compound shown: N#CC(C#N)=Cc1ccc(C#N)cc1
Result: n

Ask: Hello, I am checking results. What call was entered for CC[C@@]1(O)C(=O)OCc2c1cc1n(c2=O)Cc2cc3ccccc3nc2-1 ?
Result: y

Ask: Hi, do you know how C/C(=N\O)c1ccc2ccc3ccccc3c2c1 came out in this test?
Result: n

Ask: Assay result, entry CC[C@](O)(C(=O)O)c1cc2n(c(=O)c1CO)Cc1cc3ccccc3nc1-2 — outcome?
Result: y

====

experiment: NCI Yeast Anticancer Drug Screen. Data for the mec2-1 strain (AID 157); settings: S. cerevisiae mec2-1 strain, at 11.0 µM, hits give high values
The panel holds about 79,000 compounds, 15% with a hit somewhere; the sample as a whole holds those more often.
Quantity kind: growth inhibition (%)
Give bare numbers, in %.

Below are worked cases with known answers.
Molecule: CNCC(O)c1ccc(O)c(O)c1.[Pt].c1ccc([PH+](c2ccccc2)c2ccccc2)cc1.c1ccc([PH+](c2ccccc2)c2ccccc2)cc1
growth inhibition [%]: 4

Molecule: O=C1C2CC(Cl)C(SSC3CC4C(=O)N(SC(Cl)(Cl)C(Cl)Cl)C(=O)C4CC3Cl)CC2C(=O)N1SC(Cl)(Cl)C(Cl)Cl (stereo not given)
growth inhibition [%]: 99

Molecule: O=[N+]([O-])c1cc([As](Br)c2ccc(O)c([N+](=O)[O-])c2)ccc1O
growth inhibition [%]: 99

Please give growth inhibition, item by item, for the list that follows.
1. Nc1nc(N)c(-c2ccc(Cl)c(Cl)c2)c(CP(Cl)(Cl)(Cl)Br)n1
2. COC(=O)C1=C(C(=O)OC)SC2(S1)C(C(=O)OC)=C(C(=O)OC)Sc1c2ssc1=O
3. O=[N+]([O-])c1ccc(-n2nc3ccc4c(no[n+]4[O-])c3[n+]2[O-])c([N+](=O)[O-])c1
4. [Pt].c1ccc(P(CCP(c2ccccc2)c2ccccc2)CCP(c2ccccc2)c2ccccc2)cc1
5. C[C@]12CCC(=O)C=C1CC[C@@H]1C2CC[C@@]2(C)C1CC[C@@H]2OC(=O)C12OC1CCC2=O (stereo not given in full)
6. O=C(COc1ccc(Cl)cc1Cl)NO
7. CCOP(=O)(CC(C)P(=O)(OCC)OCC)OCC.C[CH2][Sn]([Cl])([Cl])[CH2]C (stereo not given)

Result:
[13, 85, 2, 6, 33, 11, 14]

====

Could you please report measured growth inhibition for the items listed next?
assay: NCI Yeast Anticancer Drug Screen. Data for the mec2-1 strain (AID 157); conditions: S. cerevisiae mec2-1 strain, at 50.0 µM (retest, dose inferred, filed as 5.0), hits give high values
About 79,000 compounds went through this panel and 15% of them were active in at least one assay; those are over-represented in the sample as a whole.
Give bare numbers, in %.

Sample records with growth inhibition:
Molecule: Cc1cc([N+](=O)[O-])c(O)c([N+](=O)[O-])c1C
Measurement: 47
--
Molecule: ClC1=C(Cl)C2(Cl)C(C3CO3)CC1(Cl)C2(Cl)Cl (stereo not given)
Measurement: 11
--
Molecule: Cc1cc(O)c2c(c1)C(=O)C13C(=C2O)C(=O)C2C(O)C1C1C(O)C3C(=O)C3=C(O)c4c(O)cc(C)cc4C(=O)C321 (stereo not given)
Measurement: 46
--
Molecule: CN(C)CC(Cl)CCl (stereo not given)
Measurement: 71
--
Molecule: CCCCCCC[CH2][Sn]([F])([F])[CH2]CCCCCCC
Measurement: 4

// input: 3 molecules below; output: growth inhibition for each
1. C=C1C(C)C2C(Cc3ccccc3)NC(=O)C23C(OC(C)=O)C=CC(C)(O)C(=O)C(C)C/C=C/C3C1O (stereo not given)
2. CC(=O)O[C@H]1CC[C@H]2[C@@H]3CC[C@H]4CC(=O)CC[C@@H]4[C@H]3CC[C@]12C
3. CCC[CH2][Sn]1([CH2]CCC)[O]C(c2ccccn2)S(=O)(=O)[O]1 (stereo not given)

Result:
[96, -9, 12]

Could I get growth inhibition for every one of these entries?
1. CC(C(=O)C1CCCCC1)[n+]1ccccc1 (stereo not given)
2. CCCOc1ccc(/C=C/[N+](=O)[O-])cc1

Result:
1
17

====

Would you mind telling me the reported growth inhibition of each entry?
test: NCI Yeast Anticancer Drug Screen. Data for the rad50 strain (AID 155);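 also: 0% = growth of vehicle-only cultures of the same strain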; conditions: S. cerevisiae rad50 strain growth inhibition; at 5.0 µM (retest, dose inferred, filed as 0.5); hits give high values
About 79,000 compounds went through this panel and 15% of them were active in at least one assay; those are over-represented in the sample as a whole.
Give bare numbers, in %.

Molecule: CCNc1ncc2ccccc2c1-c1ccc(N2CCN(CCCl)CC2)cc1
growth inhibition, %: 15

Molecule: O=C1C=CC(=O)N1c1cccc2ccccc12 (tested in a mixture with another compound)
growth inhibition, %: -1

Molecule: OC1(c2ccccc2)CC2CCC(C1)N2CCCC(O)(c1ccccc1)c1ccccc1 (configuration not stated)
growth inhibition, %: -8

Molecule: C[C@]12CC[C@H](O)CC1=CC[C@@H]1[C@@H]2CC[C@]2(C)C(=O)CC[C@@H]12
growth inhibition, %: 58

Molecule: Cc1ccccc1C[As](C)(=O)O
growth inhibition, %: -157

Molecule: [N-]=[N+]=C1C(Cl)=C(Cl)C(Cl)=C1Cl
growth inhibition, %: 62

Ask: What measured growth inhibition goes with Ic1cccc2c1[se]c1ccccc12 ?
Result: -8

====

Give measured growth inhibition for each item. Keep answers brief.
experiment: NCI Yeast Anticancer Drug Screen. Data for the wt2 strain (AID 169);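 also: 0% = growth of vehicle-treated yeast cultures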; settings: S. cerevisiae wt2 strain growth inhibition; at 100.0 µM; hits give high values
The panel holds about 79,000 compounds, 15% with a hit somewhere; the sample as a whole holds those more often.
Answers are plain numbers, in %.

Please review the following examples before continuing.
Compound: c1cc2c(cc1C1OC[C@H]3[C@@H](c4ccc5c(c4)OCO5)OC[C@@H]13)OCO2 (stereo partly drawn)
Quantity kind: growth inhibition
Measurement: 12
--
Compound: Cc1cc(N=Nc2ccccc2C)ccc1N
Quantity kind: growth inhibition
Measurement: 99
--
Compound: O=C(O)C1C2C=CC(C2)C1c1ccccc1 (stereo not drawn)
Quantity kind: growth inhibition
Measurement: 8
--
Compound: N#Cc1cc(N(CCCl)CCCl)c([N+](=O)[O-])cc1[N+](=O)[O-]
Quantity kind: growth inhibition
Measurement: 80
--
Compound: Cc1ccc2nc3sc(=O)sc3nc2c1
Quantity kind: growth inhibition
Measurement: 97
--
Compound: Br[Se]c1ccccn1
Quantity kind: growth inhibition
Measurement: 99
--
Compound: C/C(CCl)=N/NC1=NC(c2ccccc2Cl)P(=O)(NCCCNP2(=O)SC(N/N=C(/C)CCl)=NC2c2ccccc2Cl)S1 (stereo not drawn)
Quantity kind: growth inhibition
Measurement: 13
--
Compound: [O-][n+]1c2cccc(O)c2[n+]([O-])c2cccc(O)c21
Quantity kind: growth inhibition
Measurement: 24
--
Compound: CCNC(=O)OCC1C2=C(C(=O)C(C)=C(N)C2=O)N2CC3C(N3C)C12OC (stereo not drawn)
Quantity kind: growth inhibition
Measurement: 34
--
Compound: CC(C)CC(NC(=O)C(N)C(C)C)C(=O)NC(CCCCN)C(=O)Nc1ccc(N(CCCl)CCCl)cc1 (stereo not drawn)
Quantity kind: growth inhibition
Measurement: -78

Give growth inhibition for each listed item.
1. O=C(O)C1C2c3ccccc3C(c3ccccc32)C1C(=O)O (stereo not drawn)
2. CCC1(O)C(=O)OCc2c1cc1n(c2=O)Cc2cc3ccccc3nc2-1 (stereo not drawn)
3. CSc1ccccc1[As](C)C
4. OCC(O)C(O)CO (stereo not drawn) (tested in a mixture with another compound)
5. CNCC(O)c1ccc(O)c(O)c1.[Pt].c1ccc([PH+](c2ccccc2)c2ccccc2)cc1.c1ccc([PH+](c2ccccc2)c2ccccc2)cc1
6. CC[C@](O)(C(=O)O)c1cc2n(c(=O)c1CO)Cc1cc3ccccc3nc1-2
7. COc1cc2ccccc2c2cc([N+](=O)[O-])oc12
8. CNC(=O)OCC1C2=C(C(=O)C(C)=C(N)C2=O)N2CC3C(N3C)C12OC (stereo not drawn)

Result:
1. -16
2. 10
3. 99
4. 0
5. 98
6. 94
7. 51
8. 21

Quick request: growth inhibition for each listed item, please.
1. CC1(Cl)CC(C)(/C=C/Cl)C(Cl)CC1Cl (stereo not drawn)
2. O=[N+]([O-])c1ccc(C=Cc2ccccc2)cc1.[C-]#[O+].[C-]#[O+].[C-]#[O+].[Cr]
3. CC1=C(N2CC2)C(=O)c2ccccc2C1=O
4. COC1C(O)C(C)OC(OC2C(Oc3cccc4c(O)c5c(=O)oc6ccc(C)c7c(=O)oc(c34)c5c67)OC(C)C(O)C2O)C1O (stereo not drawn)
5. Nc1nc(-c2ccccc2)c(-c2ccccc2)[se]1
6. NC1=NCC(c2ccc(Cl)cc2)O1 (stereo not drawn)
7. C=CC[N+]12CN3CN(CN(C3)C1)C2

Result:
50
83
34
20
-10
47
23

Okay, here is my list. What is growth inhibition for each of these?
1. CC[C@@]1(O)C(=O)OCc2c1cc1n(c2=O)Cc2cc3c(NC(=O)CN)cccc3nc2-1
2. CCCCCCCCCCCCCCCCP(=O)(O)OP(=O)(O)OCC1OC(n2ccc(N)nc2=O)C(O)C1O (stereo not drawn)
3. O=C(c1ccccc1)C1C(c2ccccc2[N+](=O)[O-])N1C1CCCCC1 (stereo not drawn)

Result:
0
1
84

Source: PubChem BioAssay (NCI)
